- assay info: M. tuberculosis growth inhibition, HTS (AID 449762);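 also: bacterial growth assessed after seven days of incubation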
- condition summary: M. tuberculosis H37Rv growth inhibition, 7H9 media; at 25 µM; active compounds read high
The campaign covered roughly 330,000 compounds. About 1,900 (0.58%) were called active. About 4% were inconclusive and are not listed. The list is a sample of the results. Entries with a potency or affinity are not part of this list.

molecule	output unit	inhibition
O=C1C(C2=C(O)c3ccccc3C2=O)=Nc2ccccc21	%	-18.6
N/C(=N\S(=O)(=O)c1cc(C(F)(F)F)cc(C(F)(F)F)c1)c1ccncc1	%	1.58
Cc1ccc(-n2c(C)c3c(C)nnc(C)c3c2C)cc1C	%	39.9
O=C(c1ccc(C(F)(F)F)cc1)N1CCC(=O)N(C(COCc2ccc(Cl)cc2)Cc2ccccc2)CC1 (stereo not given)	%	-0.74
COc1ccc(CCNC(=O)C2CCCN2S(=O)(=O)c2ccc(F)cc2)cc1OC (stereo not given)	%	0.4
CCCC(C)NC(=O)COc1ccc(S(=O)(=O)c2ccc(OCC(=O)NC(C)CCC)cc2)cc1 (stereo not given)	%	-8.03
O=C(CCl)Nc1ccc(S(=O)(=O)NC2=NCCCCC2)cc1	%	47.6
CCOC(=O)CNC(=O)CNC(=O)c1nn(-c2ccc(OC)c(OC)c2)c(=O)c2ccccc12	%	23.4
Cc1cc(Cl)nc(-n2nc(C)cc2C)n1	%	4.9
Cc1cc(-n2c(C)c3c(C)nnc(C)c3c2C)ccc1N	%	-1.53

Where do the numbers come from? From PubChem BioAssay AID449762.
